MEASURED_TARGET: SARS-CoV-2 full-length spike protein on pseudotyped lentivirus (SARS-CoV-2, UniProt P0DTC2 14-1273)
ASSAY_TEXT: cell-based or functional assay

- BINDER: "anti-SARS-CoV-2 antibody 1075 (antibody, V domains shown) VH: QVQLVQSGAEVKKPGASVKVSCKVSGYTLIELSMHWVRQAPGKGLEWMGGFDPEDGETIYAQKFQGRVTMTEDTSTDTAYMELSSLRSEDTAVYYCATEWAYYGSGSYLGYWGQGTLVTVSS VL: EIVMTQSPATLSVSPGERATLSCRASQSVSSNLAWFQQKPGQAPRLLIYGASTRVTVIPARFSGSGSGTEFTLTISSLQSEDFAVYYCQQYNNWPRTFGQGTKVEIK"
  Pseudo-neutralization IC50 / µg/mL: 0.039
- BINDER: "anti-SARS-CoV-2 antibody 1193 (antibody, V domains shown) VH: EVQLVESGGGLVQPGGSLRLSCAASGFTFSSYYMNWVRQAPGKGLEWVSYISSGSSIIYYADSVKGRFTISRDNAKNSLYLQMNSLRDEDTAVYYCARDSPLRYFDWQLGGGFDYWGQGTLVTVSS VL: QSALTQPASVSGSPGQSITISCTGTSSDVGGYNYVSWYQQHPGKAPKLMIYDVSNRPSGVSNRFSGSKSGNTASLTISGLQAEDEADYYCSSYTSSSLWVFGGGTKLTVL"
  Pseudo-neutralization IC50 / µg/mL: 0.69
- BINDER: "anti-SARS-CoV-2 antibody 923 (antibody, V domains shown) VH: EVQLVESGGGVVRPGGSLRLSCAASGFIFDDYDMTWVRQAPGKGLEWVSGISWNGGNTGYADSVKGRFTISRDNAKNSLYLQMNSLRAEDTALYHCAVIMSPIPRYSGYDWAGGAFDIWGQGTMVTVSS VL: SSELTQDPAVSVALGQTVRITCQGDSLRSYYASWYQQKPGQVPILVIYDKNNRPSGIPDRFSGSSSGNTASLTITGAQAEDEADYYCNSRDSSGNAVVFGGGTKLTVL"
  Pseudo-neutralization IC50 / µg/mL: 0.093
- BINDER: "anti-SARS-CoV-2 antibody 1081 (antibody, V domains shown) VH: EVQLVQSGAEVKKPGESLKISCKRSGYSFTTYWIGWVRQMPGKGLEWMGSIYPGDSDTRYSPSFQGQVTISADKSISTAYLQWSSLKASDTAMYYCASQEVPGYYYYMDVWGKGTTVTVSS VL: DIQMTQSPSSLSASVGDRVTITCRASQSISSYLHWYQQKPGKAPKLLIYAASSLQSGVPSRFSGSGSGTDFTLTISSLQPEDFATYYCQQTYSTHTWTFGQGTKVEIK"
  Pseudo-neutralization IC50 / µg/mL: 0.012
- BINDER: "anti-SARS-CoV-2 antibody 1118 (antibody, V domains shown) VH: EVQLVESGGGLVQPGGSLRLSCAASGFRFSNYEMNWVRQAPGKGLEWVSYISSTGGSIFYADSVKGRFTISRGDAKNSVYLQMNSLRAEDTAVYYCARAMYYYGSGTLDYWGQGTLVTVSS VL: DIQMTQSPSSLSASVGDRVTITCRASQSISRFLNWYQQKPGTAPKLLIYDVSSLQSGVPTRFSGSGSGTDFTLTISSLQPEDFATYYCQQSYTTPPAFGPGTRVDIK"
  Pseudo-neutralization IC50 / µg/mL: 0.026
